Quick reference: Bliss interaction score of the listed items.
system: B. subtilis 168; assay: Bliss interaction score (quartile over a dose matrix) (fitness difference); higher = more antagonism (negative = synergy); settings: main component drawn;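 further: first quartile when negative (synergy) and third quartile when positive (antagonism)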

compound	Bliss interaction score
CC[C@H](C)[C@H](N)C1=N[C@H](C(=O)N[C@@H](CC(C)C)C(=O)N[C@H](CCC(=O)O)C(=O)N[C@H](C(=O)N[C@H]2CCCCNC(=O)[C@H](CC(N)=O)NC(=O)[C@@H](CC(=O)O)NC(=O)[C@H](Cc3cnc[nH]3)NC(=O)[C@@H](Cc3ccccc3)NC(=O)[C@H]([C@@H](C)CC)NC(=O)[C@@H](CCCN)NC2=O)[C@@H](C)CC)CS1 [Bacitracin] + CO[C@@]12[C@H](COC(N)=O)C3=C(C(=O)C(C)=C(N)C3=O)N1C[C@@H]1N[C@@H]12 [MitomycinC]	-0.0673
CC[C@H](C)[C@H](N)C1=N[C@H](C(=O)N[C@@H](CC(C)C)C(=O)N[C@H](CCC(=O)O)C(=O)N[C@H](C(=O)N[C@H]2CCCCNC(=O)[C@H](CC(N)=O)NC(=O)[C@@H](CC(=O)O)NC(=O)[C@H](Cc3cnc[nH]3)NC(=O)[C@@H](Cc3ccccc3)NC(=O)[C@H]([C@@H](C)CC)NC(=O)[C@@H](CCCN)NC2=O)[C@@H](C)CC)CS1 [Bacitracin] + O=C(N[C@H](CO)[C@H](O)c1ccc([N+](=O)[O-])cc1)C(Cl)Cl [Chloramphenicol]	-0.106

----------
test system: S. aureus Newman; assay: Bliss interaction score (quartile over a dose matrix) (fitness difference); higher = more antagonism (negative = synergy)
Quick reference: Bliss interaction score of the listed items.
testReadout: Bliss interaction score

molecule	testReadout	assayValue
CN[C@@H]1[C@H](O[C@H]2[C@H](O[C@H]3[C@H](O)[C@@H](O)[C@H](N=C(N)N)[C@@H](O)[C@@H]3N=C(N)N)O[C@@H](C)[C@]2(O)C=O)O[C@@H](CO)[C@H](O)[C@H]1O [Streptomycin] + CN(C)c1cc(NC(=O)CNC(C)(C)C)c(O)c2c1C[C@H]1C[C@H]3[C@H](N(C)C)C(O)=C(C(N)=O)C(=O)[C@@]3(O)C(O)=C1C2=O [Tigecycline]	Bliss interaction score	0.0427
CO[C@@H]1[C@@H](OC(N)=O)[C@@H](O)[C@H](Oc2ccc3c(O)c(NC(=O)c4ccc(O)c(CC=C(C)C)c4)c(=O)oc3c2C)OC1(C)C [Novobiocin] + CN(C)c1cc(NC(=O)CNC(C)(C)C)c(O)c2c1C[C@H]1C[C@H]3[C@H](N(C)C)C(O)=C(C(N)=O)C(=O)[C@@]3(O)C(O)=C1C2=O [Tigecycline]	Bliss interaction score	0.03

----------
system: S. aureus Newman; assay: Bliss interaction score (quartile over a dose matrix) (fitness difference); higher = more antagonism (negative = synergy)
Quick reference: Bliss interaction score of the listed items.
testReadout: Bliss interaction score

compound	experimentalTarget	testReadout	assayValue
CN[C@@H]1[C@H](O)[C@H](NC)[C@H]2O[C@@]3(O)C(=O)C[C@@H](C)O[C@H]3O[C@@H]2[C@H]1O [Spectinomycin] + Cn1nnc(-c2ccc(-c3ccc(N4C[C@H](CO)OC4=O)cc3F)cn2)n1 [Tedizolid]	S. aureus Newman	Bliss interaction score	-0.111
CO[C@@H]1[C@@H](OC(N)=O)[C@@H](O)[C@H](Oc2ccc3c(O)c(NC(=O)c4ccc(O)c(CC=C(C)C)c4)c(=O)oc3c2C)OC1(C)C [Novobiocin] + Cn1nnc(-c2ccc(-c3ccc(N4C[C@H](CO)OC4=O)cc3F)cn2)n1 [Tedizolid]	S. aureus Newman	Bliss interaction score	-0.0571
CN[C@@H]1[C@H](O)[C@H](NC)[C@H]2O[C@@]3(O)C(=O)C[C@@H](C)O[C@H]3O[C@@H]2[C@H]1O [Spectinomycin] + COc1cc(Cc2cnc(N)nc2N)cc(OC)c1OC [Trimethoprim]	S. aureus Newman	Bliss interaction score	0.0863
CO[C@@H]1[C@@H](OC(N)=O)[C@@H](O)[C@H](Oc2ccc3c(O)c(NC(=O)c4ccc(O)c(CC=C(C)C)c4)c(=O)oc3c2C)OC1(C)C [Novobiocin] + CN1C2=CC=CC=C2N=C3C1=CC=CC3=O [Pyocyanin]	S. aureus Newman	Bliss interaction score	0.0744

----------
system: S. pneumoniae D39V; experiment: Bliss interaction score (quartile over a dose matrix) (fitness difference); higher = more antagonism (negative = synergy)

compound	Bliss interaction score
CO[C@@]12[C@H](COC(N)=O)C3=C(C(=O)C(C)=C(N)C3=O)N1C[C@@H]1N[C@@H]12 [MitomycinC] + CC[C@H]1OC(=O)[C@H](C)C(=O)[C@H](C)[C@@H](O[C@@H]2O[C@H](C)C[C@H](N(C)C)[C@H]2O)[C@](C)(OC)C[C@@H](C)C(=O)[C@H](C)[C@H]2N(CCCCn3cnc(-c4cccnc4)c3)C(=O)O[C@]12C [Telithromycin]	-0.102
CO[C@@]12[C@H](COC(N)=O)C3=C(C(=O)C(C)=C(N)C3=O)N1C[C@@H]1N[C@@H]12 [MitomycinC] + CC1(C)S[C@@H]2[C@H](NC(=O)Cc3ccccc3)C(=O)N2[C@H]1C(=O)O [PenicillinG]	0.103

----------
Quick reference: Bliss interaction score of the listed items.
system: S. pneumoniae D39V; experiment: Bliss interaction score (quartile over a dose matrix) (fitness difference); higher = more antagonism (negative = synergy)

compound	experimentalTarget	Bliss interaction score
CC(=O)NC[C@H]1CN(c2ccc(N3CCOCC3)c(F)c2)C(=O)O1 [Linezolid] + CN(C)c1cc(NC(=O)CNC(C)(C)C)c(O)c2c1C[C@H]1C[C@H]3[C@H](N(C)C)C(O)=C(C(N)=O)C(=O)[C@@]3(O)C(O)=C1C2=O [Tigecycline]	S. pneumoniae D39V	-0.158
CN[C@@H]1[C@H](O[C@H]2[C@H](O[C@H]3[C@H](O)[C@@H](O)[C@H](N=C(N)N)[C@@H](O)[C@@H]3N=C(N)N)O[C@@H](C)[C@]2(O)C=O)O[C@@H](CO)[C@H](O)[C@H]1O [Streptomycin] + COc1cc(Cc2cnc(N)nc2N)cc(OC)c1OC [Trimethoprim]	S. pneumoniae D39V	-0.175
CC[C@H]1OC(=O)[C@H](C)[C@@H](O[C@H]2C[C@@](C)(OC)[C@@H](O)[C@H](C)O2)[C@H](C)[C@@H](O[C@@H]2O[C@H](C)C[C@H](N(C)C)[C@H]2O)[C@](C)(O)C[C@@H](C)C(=O)[C@H](C)[C@@H](O)[C@]1(C)O [Erythromycin] + COc1ccc(C[C@H](N)C(=O)N[C@H]2[C@@H](O)[C@H](n3cnc4c(N(C)C)ncnc43)O[C@@H]2CO)cc1 [Puromycin]	S. pneumoniae D39V	-0.0449

----------
test system: S. aureus DSM 20231; assay: Bliss interaction score (quartile over a dose matrix) (fitness difference); higher = more antagonism (negative = synergy)
Kindly return Fulfilled if reported Bliss interaction score is no lower than -0.06; return Not fulfilled if it is lower.

compound	assignedClass
CN[C@H](CC(C)C)C(=O)N[C@H]1C(=O)N[C@@H](CC(N)=O)C(=O)N[C@H]2C(=O)N[C@H]3C(=O)N[C@H](C(=O)N[C@H](C(=O)O)c4cc(O)cc(O)c4-c4cc3ccc4O)[C@H](O[C@H]3C[C@](C)(N)[C@@H](O)[C@H](C)O3)c3ccc(c(Cl)c3)Oc3cc2cc(c3O[C@@H]2O[C@H](CO)[C@@H](O)[C@H](O)[C@H]2O[C@H]2C[C@](C)(NCc3ccc(-c4ccc(Cl)cc4)cc3)[C@@H](O)[C@H](C)O2)Oc2ccc(cc2Cl)[C@H]1O [Oritavancin] + CN1C2=CC=CC=C2N=C3C1=CC=CC3=O [Pyocyanin]	Fulfilled
CC[C@H]1OC(=O)[C@H](C)[C@@H](O[C@H]2C[C@@](C)(OC)[C@@H](O)[C@H](C)O2)[C@H](C)[C@@H](O[C@@H]2O[C@H](C)C[C@H](N(C)C)[C@H]2O)[C@](C)(O)C[C@@H](C)C(=O)[C@H](C)[C@@H](O)[C@]1(C)O [Erythromycin] + Clc1ccc(COC(Cn2ccnc2)c2ccc(Cl)cc2Cl)c(Cl)c1 [Miconazole]	Fulfilled
CO[C@@]12[C@H](COC(N)=O)C3=C(C(=O)C(C)=C(N)C3=O)N1C[C@@H]1N[C@@H]12 [MitomycinC] + Cc1c(Cl)cccc1Nc1ccccc1C(=O)O [Tolfenamic]	Not fulfilled
CN[C@@H]1[C@H](O)[C@H](NC)[C@H]2O[C@@]3(O)C(=O)C[C@@H](C)O[C@H]3O[C@@H]2[C@H]1O [Spectinomycin] + Cc1cc(NS(=O)(=O)c2ccc(N)cc2)no1 [Sulfamethoxazol]	Not fulfilled
CC[C@H]1OC(=O)[C@H](C)[C@@H](O[C@H]2C[C@@](C)(OC)[C@@H](O)[C@H](C)O2)[C@H](C)[C@@H](O[C@@H]2O[C@H](C)C[C@H](N(C)C)[C@H]2O)[C@](C)(O)C[C@@H](C)C(=O)[C@H](C)[C@@H](O)[C@]1(C)O [Erythromycin] + CN(C)c1cc(NC(=O)CNC(C)(C)C)c(O)c2c1C[C@H]1C[C@H]3[C@H](N(C)C)C(O)=C(C(N)=O)C(=O)[C@@]3(O)C(O)=C1C2=O [Tigecycline]	Fulfilled
CN[C@H](CC(C)C)C(=O)N[C@H]1C(=O)N[C@@H](CC(N)=O)C(=O)N[C@H]2C(=O)N[C@H]3C(=O)N[C@H](C(=O)N[C@H](C(=O)O)c4cc(O)cc(O)c4-c4cc3ccc4O)[C@H](O[C@H]3C[C@](C)(N)[C@@H](O)[C@H](C)O3)c3ccc(c(Cl)c3)Oc3cc2cc(c3O[C@@H]2O[C@H](CO)[C@@H](O)[C@H](O)[C@H]2O[C@H]2C[C@](C)(NCc3ccc(-c4ccc(Cl)cc4)cc3)[C@@H](O)[C@H](C)O2)Oc2ccc(cc2Cl)[C@H]1O [Oritavancin] + Oc1cc(Cl)ccc1Oc1ccc(Cl)cc1Cl [Triclosan]	Fulfilled
CC[C@H]1OC(=O)[C@H](C)[C@@H](O[C@H]2C[C@@](C)(OC)[C@@H](O)[C@H](C)O2)[C@H](C)[C@@H](O[C@@H]2O[C@H](C)C[C@H](N(C)C)[C@H]2O)[C@](C)(O)C[C@@H](C)C(=O)[C@H](C)[C@@H](O)[C@]1(C)O [Erythromycin] + C/C(=C\C(=O)OCCCCCCCCC(=O)O)C[C@@H]1OC[C@H](C[C@@H]2O[C@H]2[C@@H](C)[C@H](C)O)[C@@H](O)[C@H]1O [Pseudomonic acid]	Fulfilled
CO[C@@]12[C@H](COC(N)=O)C3=C(C(=O)C(C)=C(N)C3=O)N1C[C@@H]1N[C@@H]12 [MitomycinC] + CC[C@H]1OC(=O)[C@H](C)C(=O)[C@H](C)[C@@H](O[C@@H]2O[C@H](C)C[C@H](N(C)C)[C@H]2O)[C@](C)(OC)C[C@@H](C)C(=O)[C@H](C)[C@H]2N(CCCCn3cnc(-c4cccnc4)c3)C(=O)O[C@]12C [Telithromycin]	Fulfilled
CC[C@H]1OC(=O)[C@H](C)[C@@H](O[C@H]2C[C@@](C)(OC)[C@@H](O)[C@H](C)O2)[C@H](C)[C@@H](O[C@@H]2O[C@H](C)C[C@H](N(C)C)[C@H]2O)[C@](C)(O)C[C@@H](C)C(=O)[C@H](C)[C@@H](O)[C@]1(C)O [Erythromycin] + CC[C@H]1OC(=O)[C@H](C)C(=O)[C@H](C)[C@@H](O[C@@H]2O[C@H](C)C[C@H](N(C)C)[C@H]2O)[C@](C)(OC)C[C@@H](C)C(=O)[C@H](C)[C@H]2N(CCCCn3cnc(-c4cccnc4)c3)C(=O)O[C@]12C [Telithromycin]	Fulfilled
CN[C@@H]1[C@H](O[C@H]2[C@H](O[C@H]3[C@H](O)[C@@H](O)[C@H](N=C(N)N)[C@@H](O)[C@@H]3N=C(N)N)O[C@@H](C)[C@]2(O)C=O)O[C@@H](CO)[C@H](O)[C@H]1O [Streptomycin] + CN(N=O)C(=O)N[C@@H](C=O)[C@@H](O)[C@H](O)[C@H](O)CO [Streptozotocin]	Not fulfilled

These entries and their values trace back to the supplement of paper PMC10627819.
